From: PubChem BioAssay

Assay: binders of probe aFSTL3 on microarray, primary screen, stem cell growth factor project, biochemical, small-molecule microarray, fluorescence 635/667 (AID 1064);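 further: measures binding of the biotinylated anti-FSTL3 antibody to printed compounds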
Settings: higher = more signal
Below, each entry is listed with its recorded composite z-score.

Some compounds with recorded composite z-score:
>>> observed("O=C(N1CCCCC1)[C@]1(Cc2ccccc2)N=C(c2ccc(OCCCO)cc2)O[C@@H]1c1ccccc1")
0.542
>>> observed("CCC(CC)C(O)C1C=CC2C(=O)NC(=O)C2N1Nc1ccccn1 (centres undefined)")
-0.164
>>> observed("COC(=O)[C@@]1(Cc2ccc(F)cc2)[C@H]2c3cc(C(=O)N4CCCC4)n(CCCNc4ncc(C(F)(F)F)cc4Cl)c3C[C@H]2CN1C(=O)c1ccccc1")
0.785
>>> observed("COc1ccc(/C=C/C=O)cc1")
-0.0583
>>> observed("C=C(CCCC)/C(=C/C[C@@H](OC(=O)c1ccncc1)c1ccc(OCCO)cc1)c1cc(C(=O)OC)ccc1OC")
-0.356
>>> observed("COC(=O)C(CC#Cc1ccc2c(c1)[C@]1(C(=O)N2)[C@H](c2ccc(OCCO)cc2)N2[C@H](c3ccccc3)[C@H](c3ccccc3)OC(=O)[C@H]2[C@@H]1C(=O)N1CCc2cc(OC)c(OC)cc2C1)C(=O)OC")
0.931
>>> observed("O=C1O[C@H](c2ccccc2)[C@H](c2ccccc2)N2[C@H]1[C@@H](C(=O)N1CCCCCCC1)[C@]1(C(=O)Nc3ccc(C#CCCO)cc31)[C@H]2c1ccccc1OCCO")
3.95
>>> observed("CN(C)CCCCCCNC(=O)[C@@H]1C[C@@H]2C(=O)N[C@@H](Cc3ccccc3)C(=O)N2[C@@H]1c1ccc(O)cc1")
0.361
>>> observed("NC(=O)[C@@H]1[C@H]2C(=O)O[C@H](c3ccccc3)[C@H](c3ccccc3)N2[C@H](c2ccc(O)cc2)[C@@]12C(=O)Nc1ccccc12")
0.241
>>> observed("COC(=O)[C@H](Cc1ccccc1)N[C@@H](/C=C/C1CC1)[C@H](O)Cc1ccccc1")
0.115

Quick one: composite z-score for C=C(CCCC)C(=O)CC[C@@H](OC(=O)c1ccccc1-c1ccccc1C(=O)O)c1ccc(OCCO)cc1 ?
-0.281

Query: composite z-score; subject: C[N+](C)(C)CCCCCCNC(=O)[C@@H]1C[C@@H]2C(=O)N[C@@H](Cc3ccccc3)C(=O)N2[C@@H]1c1cccc(OCCO)c1
-0.0274

State the recorded composite z-score for this entry: COCCOC(=O)N1C(=O)[C@@]2(c3cc(C#CCC(C(=O)OC)C(=O)OC)ccc31)[C@H](C(=O)N1CCN(c3ncccn3)CC1)[C@H]1C(=O)O[C@H](c3ccccc3)[C@H](c3ccccc3)N1[C@@H]2c1ccccc1OCCO
-0.486

Find the recorded composite z-score belonging to COC(=O)[C@H](Cc1ccccc1)N1CC2=C[C@@H](C3CC3)n3c(=O)n(C)c(=O)n3[C@H]2[C@@H]1[C@@H](O)Cc1ccccc1 and report it.
-0.575

composite z-score lookup needed for COC(=O)C(CC#Cc1ccc2c(c1)[C@]1(C(=O)N2)[C@H](C(=O)Nc2nc3ccccc3s2)[C@H]2C(=O)O[C@H](c3ccccc3)[C@H](c3ccccc3)N2[C@@H]1c1ccc(O)cc1)C(=O)OC , thanks.
-0.485

What value of composite z-score has been recorded for this entry: [N-]=[N+]=Nc1ccccc1[C@@H]1OC(c2ccc(OCCCO)cc2)=N[C@]1(CCS(=O)(=O)c1ccccc1)C(N)=O
0.109
